Entry source: patent US20110237594A1

Answer each item with its documented Lop p.
- ASSAY METHOD TEXT: logP by HPLC on reversed phase columns (EEC directive 79/831 Annex V.A8)
- MEASUREMENT CONTEXT: unmarked values: LC-MS at pH 2.7, 0.1% formic acid in water / acetonitrile, gradient 10% to 95% acetonitrile
Response field accepts a number only; no unit should be typed.

-- ask Lop p lookup needed for CCN(CC)c1cc(-c2ncnc(Nc3ccsc3)n2)ccn1 [Compound A29] , thanks.
-- reply 1.57

-- ask Lop p lookup needed for CN(CC1CCCO1)c1cc(-c2ncnc(Nc3ccsc3)n2)ccn1 (stereo not shown) [Compound A24] , thanks.
-- reply 1.59

-- ask Lop p lookup needed for CC(C)CCN(C)c1cc(-c2ncnc(Nc3ccsc3)n2)ccn1 [Compound A32] , thanks.
-- reply 2.18

-- ask Lop p lookup needed for CCCN(C)c1cc(-c2ncnc(Nc3ccsc3)n2)ccn1 [Compound A28] , thanks.
-- reply 1.63

* * *

Answer each item with its documented Lop p.
- ASSAY METHOD TEXT: logP by HPLC on reversed phase columns (EEC directive 79/831 Annex V.A8)
- MEASUREMENT CONTEXT: unmarked values: LC-MS at pH 2.7, 0.1% formic acid in water / acetonitrile, gradient 10% to 95% acetonitrile
Response field accepts a number only; no unit should be typed.

-- ask Lop p lookup needed for COCCN(C)c1cc(-c2ncnc(Nc3ccsc3)n2)ccn1 [Compound A26] , thanks.
-- reply 1.45

-- ask Lop p lookup needed for CC(C)=CCN(C)c1cc(-c2ncnc(Nc3ccsc3)n2)ccn1 [Compound A33] , thanks.
-- reply 2.14

-- ask Lop p lookup needed for CN(CC1CC1)c1cc(-c2ncnc(Nc3ccsc3)n2)ccn1 [Compound A21] , thanks.
-- reply 1.75

-- ask Lop p lookup needed for CC(C)CN(C)c1cc(-c2ncnc(Nc3ccsc3)n2)ccn1 [Compound A16] , thanks.
-- reply 1.86

-- ask Lop p lookup needed for C=CCN(C)c1cc(-c2ncnc(Nc3ccsc3)n2)ccn1 [Compound A27] , thanks.
-- reply 1.48

-- ask Lop p lookup needed for COC1CCCN(c2cc(-c3ncnc(Nc4ccsc4)n3)ccn2)C1 (stereo not drawn) [Compound A25] , thanks.
-- reply 1.74

-- ask Lop p lookup needed for CCCC(C)Nc1cc(-c2ncnc(Nc3ccsc3)n2)ccn1 (stereo not drawn) [Compound A31] , thanks.
-- reply 1.84

-- ask Lop p lookup needed for CN(CC(F)(F)F)c1cc(-c2ncnc(Nc3ccsc3)n2)ccn1 [Compound A23] , thanks.
-- reply 3.42

-- ask Lop p lookup needed for CCC(COC)Nc1cc(-c2ncnc(Nc3ccsc3)n2)ccn1 (stereo not drawn) [Compound A30] , thanks.
-- reply 1.6

* * *

- ASSAY METHOD TEXT: logP by HPLC on reversed phase columns (EEC directive 79/831 Annex V.A8)
- MEASUREMENT CONTEXT: [c] LC-MS at pH 7.8, 0.001 molar ammonium hydrogen carbonate in water, gradient 10% to 95% acetonitrile
Answer each item with its documented Lop p.

-- ask Lop p lookup needed for CCC(O)CNc1cc(-c2ncnc(Nc3ccc(OC)nc3)n2)ccn1 (stereo not shown) , thanks.
-- reply 1.97[c]

-- ask Lop p lookup needed for COc1ccc(Nc2ncnc(-c3ccnc(NCC4CCCO4)c3)n2)cn1 (stereo not shown) , thanks.
-- reply 2.17[c]

-- ask Lop p lookup needed for COCC(C)Nc1cc(-c2ncnc(Nc3ccc(OC)nc3)n2)ccn1 (stereo not shown) , thanks.
-- reply 2.25[c];

-- ask Lop p lookup needed for CCC(C)Nc1cc(-c2ncnc(Nc3ccc(OC)nc3)n2)ccn1 (stereo not shown) , thanks.
-- reply 2.47[c]

-- ask Lop p lookup needed for "COc1ccc(Nc2ncnc(-c3ccnc(NCCSC)c3)n2)cn1" , thanks.
-- reply 2.44[c]

-- ask Lop p lookup needed for "C=C(C)CNc1cc(-c2ncnc(Nc3ccc(OC)nc3)n2)ccn1" , thanks.
-- reply 2.57[c]

-- ask Lop p lookup needed for "COc1ccc(Nc2ncnc(-c3ccnc(NCCCSC)c3)n2)cn1" , thanks.
-- reply 2.62[c]

-- ask Lop p lookup needed for "COc1ccc(Nc2ncnc(-c3ccnc(NCC(C)C)c3)n2)cn1" , thanks.
-- reply 2.52[c]

-- ask Lop p lookup needed for "COc1ccc(Nc2ncnc(-c3ccnc(NCCOC(C)C)c3)n2)cn1" , thanks.
-- reply 2.53[c]

-- ask Lop p lookup needed for "CCSCCNc1cc(-c2ncnc(Nc3ccc(OC)nc3)n2)ccn1" , thanks.
-- reply 2.78[c]

-- ask Lop p lookup needed for "COc1ccc(Nc2ncnc(-c3ccnc(NCCC(C)C)c3)n2)cn1" , thanks.
-- reply 3.27[c]

-- ask Lop p lookup needed for COc1ccc(Nc2ncnc(-c3ccnc(NC(C)CN(C)C)c3)n2)cn1 (stereo not shown) , thanks.
-- reply 1.45[c]

-- ask Lop p lookup needed for COc1ccc(Nc2ncnc(-c3ccnc(NCC(C)O)c3)n2)cn1 (stereo not shown) , thanks.
-- reply 1.7[c]

* * *

- ASSAY METHOD TEXT: logP by HPLC on reversed phase columns (EEC directive 79/831 Annex V.A8)
- MEASUREMENT CONTEXT: unmarked values: LC-MS at pH 2.7, 0.1% formic acid in water / acetonitrile, gradient 10% to 95% acetonitrile
MEASURED PROPERTY: Lop p
Response field accepts a number only; no unit should be typed.

-- ask Lop p lookup needed for COCCNc1cc(-c2ncnc(Nc3ccsc3)n2)ccn1 [Compound A18] , thanks.
-- reply 1.28

-- ask Lop p lookup needed for CN(c1cc(-c2ncnc(Nc3ccsc3)n2)ccn1)C1CCCC1 [Compound A34] , thanks.
-- reply 1.93

-- ask Lop p lookup needed for COCC(C)Nc1cc(-c2ncnc(Nc3ccc(OC)nc3)n2)ccn1 (stereo not shown) [Compound A1] , thanks.
-- reply 1.3

-- ask Lop p lookup needed for O=CNc1cc(-c2ncnc(Nc3ccsc3)n2)ccn1 [Compound A36] , thanks.
-- reply 1.9

-- ask Lop p lookup needed for CC(C)C(C)Nc1cc(-c2ncnc(Nc3ccsc3)n2)ccn1 (stereo not shown) [Compound A17] , thanks.
-- reply 1.79

-- ask Lop p lookup needed for Nc1cc(-c2ncnc(Nc3ccsc3)n2)ccn1 [Compound A20] , thanks.
-- reply 0.98

-- ask Lop p lookup needed for CC(C)(C)OC(=O)Nc1cc(-c2ncnc(Nc3ccsc3)n2)ccn1 [Compound A19] , thanks.
-- reply 3.39

-- ask Lop p lookup needed for CCC(C(C)OC)N(C)c1cc(-c2ncnc(Nc3ccsc3)n2)ccn1 (stereo not shown) [Compound A22] , thanks.
-- reply 2.14

-- ask Lop p lookup needed for COCC(C)Nc1cc(-c2ncnc(Nc3ccsc3)n2)ccn1 (stereo not shown) [Compound A15] , thanks.
-- reply 1.4

-- ask Lop p lookup needed for CN(C)c1cc(-c2ncnc(Nc3ccsc3)n2)ccn1 [Compound A35] , thanks.
-- reply 1.22
